Origin of values: patent US20240279241A1

Each entry below lists one item and its recorded pIC50 value.
Target: KRAS G12D (Homo sapiens, UniProt P01116, G12D)
Construct: Recombinant human RAS protein (2 nM)
Sequence (P01116 1-188 isoform P01116-2 G12D): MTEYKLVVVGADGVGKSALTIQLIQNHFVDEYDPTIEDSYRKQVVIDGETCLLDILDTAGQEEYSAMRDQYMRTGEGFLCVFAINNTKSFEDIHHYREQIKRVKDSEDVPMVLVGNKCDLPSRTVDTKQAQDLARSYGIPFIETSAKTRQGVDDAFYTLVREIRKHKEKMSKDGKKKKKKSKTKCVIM
Test: HTRF nucleotide exchange assay (NEA), KRAS G12D
Settings: recombinant human KRAS G12D aa1-188, 2 nM; lowest class = % inhibition at 10 μM
pIC50: −log10 of the molar value.

Below are worked cases with known answers.
[[record]]
molecule = "COCC(C)CNc1nc(OCC23CCCN2CCC3)nc2c(F)c(-c3cc(O)cc4ccccc34)ncc12 (stereo not shown) [Example 31]"
measured = "5.00 to 7.00"

[[record]]
molecule = "CC1(C#N)CCN(c2nc(OCC34CCCN3CCC4)nc3c(F)c(-c4cc(O)cc5ccccc45)ncc23)CC1 [Example 63]"
measured = "5.00 to 7.00"


input: Return pIC50 (reported value) for this molecule: Oc1cc(-c2ncc3c(N4CCCCCC4)nc(OCC45CCCN4CCC5)nc3c2F)c2ccccc2c1 [Example 17]
output: 7.00 to 8.00

input: Return pIC50 (reported value) for this molecule: Oc1cc(-c2ncc3c(N4CC5CNCC5C4)nc(OCC45CCCN4CCC5)nc3c2F)c2ccccc2c1 (stereo not shown) [Example 1]
output: 7.00 to 8.00

====

Molecular target: KRAS G12D (Homo sapiens, UniProt P01116, G12D)
Construct: Recombinant human RAS protein (2 nM)
Assay: HTRF nucleotide exchange assay (NEA), KRAS G12D
Conditions: recombinant human KRAS G12D aa1-188, 2 nM; lowest class = % inhibition at 10 μM
pIC50: −log10 of the molar value.
property-measured: pIC50

[[record]]
molecule = "CC1CN(c2nc(OCC34CCCN3CCC4)nc3c(F)c(-c4cc(O)cc5ccccc45)ncc23)CCO1 (stereo not shown)"
system_tested = "KRAS G12D (Homo sapiens, UniProt P01116, G12D)"
property_measured = "pIC50"
measured = "5.00 to 7.00"

[[record]]
molecule = "COCC1(CNc2nc(OCC34CCCN3CCC4)nc3c(F)c(-c4cc(O)cc5ccccc45)ncc23)COC1"
system_tested = "KRAS G12D (Homo sapiens, UniProt P01116, G12D)"
property_measured = "pIC50"
measured = "5.00 to 7.00"

[[record]]
molecule = "COCCCNc1nc(OCC23CCCN2CCC3)nc2c(F)c(-c3cc(O)cc4ccccc34)ncc12 [Example 11]"
system_tested = "KRAS G12D (Homo sapiens, UniProt P01116, G12D)"
property_measured = "pIC50"
measured = "7.00 to 8.00"

[[record]]
molecule = "Oc1cc(-c2ncc3c(N4CCc5[nH]ncc5C4)nc(OCC45CCCN4CCC5)nc3c2F)c2ccccc2c1"
system_tested = "KRAS G12D (Homo sapiens, UniProt P01116, G12D)"
property_measured = "pIC50"
measured = "5.00 to 7.00"

[[record]]
molecule = "CN(C)CC1(COc2nc(N3CCCOCC3)c3cnc(-c4cc(O)cc5ccccc45)c(F)c3n2)CC1"
system_tested = "KRAS G12D (Homo sapiens, UniProt P01116, G12D)"
property_measured = "pIC50"
measured = "7.00 to 8.00"


input: Return pIC50 (reported value) for this molecule: O=C1CC2(CCN(c3nc(OCC45CCCN4CCC5)nc4c(F)c(-c5cc(O)cc6ccccc56)ncc34)C2)CN1 (stereo not shown)
output: < 5.00

input: Return pIC50 (reported value) for this molecule: CC1COCCCN1c1nc(OCC23CCCN2CCC3)nc2c(F)c(-c3cc(O)cc4ccccc34)ncc12 (stereo not shown)
output: 7.00 to 8.00

====

Target: KRAS WT (Homo sapiens)
Construct: Recombinant human RAS protein (2 nM); aa1-188 KRAS WT
Sequence (P01116 1-188 isoform P01116-2): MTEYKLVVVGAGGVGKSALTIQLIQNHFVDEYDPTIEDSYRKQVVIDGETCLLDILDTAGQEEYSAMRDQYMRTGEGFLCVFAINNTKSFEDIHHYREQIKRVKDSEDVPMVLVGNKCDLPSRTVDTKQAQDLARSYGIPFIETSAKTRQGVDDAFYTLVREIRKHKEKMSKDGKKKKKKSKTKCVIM
Experiment: HTRF nucleotide exchange assay (NEA), KRAS WT
Assay type: biochemical
pIC50: −log10 of the molar value.
Each entry below lists one item and its recorded pIC50 value.

Below are worked cases with known answers.
[[record]]
molecule = "CN1CCN(c2nc(OCC34CCCN3CCC4)nc3c(F)c(-c4cc(O)cc5ccccc45)ncc23)CCC1=O [Example 78]"
measured = "5.00 to 7.00"

[[record]]
molecule = "C#Cc1c(F)ccc2cc(O)cc(-c3ncc4c(N5CCC(O)CC5)nc(OC[C@@]56CCCN5C[C@H](F)C6)nc4c3F)c12 (relative stereo) [Example 86]"
measured = "≥ 8.00"

[[record]]
molecule = "NS(=O)(=O)CCCNc1nc(OCC23CCCN2CCC3)nc2c(F)c(-c3cc(O)cc4ccccc34)ncc12 [Example 67]"
measured = "5.00 to 7.00"

[[record]]
molecule = "Oc1cc(-c2ncc3c(N4CCn5cncc5C4)nc(OCC45CCCN4CCC5)nc3c2F)c2ccccc2c1 [Example 58]"
measured = "5.00 to 7.00"

[[record]]
molecule = "Oc1cc(-c2ncc3c(N4CCCCC4)nc(OCC45CCCN4CCC5)nc3c2F)c2ccccc2c1 [Example 34]"
measured = "7.00 to 8.00"


input: Please look at CC1COCCCN1c1nc(OCC23CCCN2CCC3)nc2c(F)c(-c3cc(O)cc4ccccc34)ncc12 (stereo not shown) [Example 18] and tell me its recorded pIC50 on KRAS WT (Homo sapiens).
output: 7.00 to 8.00

input: Please look at O=C1CCN(c2nc(OCC34CCCN3CCC4)nc3c(F)c(-c4cc(O)cc5ccccc45)ncc23)CCO1 [Example 72] and tell me its recorded pIC50 on KRAS WT (Homo sapiens).
output: 5.00 to 7.00

====

Each entry below lists one item and its recorded IC50 value.
Biological target: KRAS G12V (Homo sapiens, UniProt P01116, G12V)
Construct: 4 nM KRAS; aa1-188 containing the G12V, G12C, G12A or G12S amino acid substitution
Sequence (P01116 1-188 isoform P01116-2 G12V): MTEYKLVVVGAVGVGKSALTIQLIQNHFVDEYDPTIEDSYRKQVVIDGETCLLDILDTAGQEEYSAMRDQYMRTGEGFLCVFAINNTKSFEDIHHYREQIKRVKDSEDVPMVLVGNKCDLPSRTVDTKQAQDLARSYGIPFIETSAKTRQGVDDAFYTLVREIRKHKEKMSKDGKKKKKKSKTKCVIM
Experiment: HTRF nucleotide exchange assay (NEA), KRAS G12V
Type: biochemical

Below are worked cases with known answers.
[[record]]
compound = "Oc1cc(-c2ncc3c(N4CCC(O)CC4)nc(OCC45CCCN4CCC5)nc3c2F)c2ccccc2c1"
system_tested = "KRAS G12V (Homo sapiens, UniProt P01116, G12V)"
measured = "10 to 100 nM"

[[record]]
compound = "Oc1cc(-c2ncc3c(N4CCOC5(CCCC5)C4)nc(OCC45CCCN4CCC5)nc3c2F)c2ccccc2c1"
system_tested = "KRAS G12V (Homo sapiens, UniProt P01116, G12V)"
measured = "100 to 10000 nM"

[[record]]
compound = "Oc1cc(-c2ncc3c(N4CCCOCC4)nc(OCC45CCCN4CCC5)nc3c2F)c2ccccc2c1"
system_tested = "KRAS G12V (Homo sapiens, UniProt P01116, G12V)"
measured = "≤ 10 nM"

[[record]]
compound = "O=C1CN(c2nc(OCC34CCCN3CCC4)nc3c(F)c(-c4cc(O)cc5ccccc45)ncc23)CCCN1"
system_tested = "KRAS G12V (Homo sapiens, UniProt P01116, G12V)"
measured = "10 to 100 nM"

[[record]]
compound = "C#Cc1c(F)ccc2cc(O)cc(-c3ncc4c(N5CCCNC(=O)C5)nc(OC[C@@]56CCCN5C[C@H](F)C6)nc4c3F)c12 (relative stereo)"
system_tested = "KRAS G12V (Homo sapiens, UniProt P01116, G12V)"
measured = "≤ 10 nM"


API: the following record is the query input.
input: Please look at "Nc1cc2ccccc2c(-c2ncc3c(N4CCCOCC4)nc(OCC45CCCN4CCC5)nc3c2F)n1" and tell me its recorded IC50 on KRAS G12V (Homo sapiens, UniProt P01116, G12V).
output: 100 to 10000 nM

====

Target: KRAS G12V (Homo sapiens, UniProt P01116, G12V)
Construct: 4 nM KRAS; aa1-188 containing the G12V, G12C, G12A or G12S amino acid substitution
Test: HTRF nucleotide exchange assay (NEA), KRAS G12V
Assay type: biochemical
property-measured: IC50

Below are worked cases with known answers.
[[record]]
item_smiles = "CN1CCCN(c2nc(OCC34CCCN3CCC4)nc3c(F)c(-c4cc(O)cc5ccccc45)ncc23)CC1=O"
system_tested = "KRAS G12V (Homo sapiens, UniProt P01116, G12V)"
property_measured = "IC50"
measured = "0.1 to 10 µM"

[[record]]
item_smiles = "COCC1(CNc2nc(OCC34CCCN3CCC4)nc3c(F)c(-c4cc(O)cc5ccccc45)ncc23)COC1"
system_tested = "KRAS G12V (Homo sapiens, UniProt P01116, G12V)"
property_measured = "IC50"
measured = "0.1 to 10 µM"

[[record]]
item_smiles = "N#CC1CCN(c2nc(OCC34CCCN3CCC4)nc3c(F)c(-c4cc(O)cc5ccccc45)ncc23)CC1"
system_tested = "KRAS G12V (Homo sapiens, UniProt P01116, G12V)"
property_measured = "IC50"
measured = "0.01 to 0.1 µM"


API: the following record is the query input.
input: Return IC50 (reported value) for this compound: "Oc1cc(-c2ncc3c(N4CC5CCC(C4)O5)nc(OCC45CCCN4CCC5)nc3c2F)c2ccccc2c1"
output: 0.1 to 10 µM
